The values you see were collected from patent US8404651B2.

Assay: In vitro cytotoxicity, HepG2
Assay type: cell-based
Conditions: human, HepG2 cells
result type: CC50

What value of measured CC50 is listed for COC1C(OP(=O)(OC[C@H]2O[C@@H](n3cnc4c(N)ncnc43)CC2O)SCOC(=O)OC(C)C)[C@@H](CO)O[C@H]1n1ccc(=O)[nH]c1=O (stereo partly shown) [Compound 2] ?
> 100 µM

* * *

Tested on: HCV replicon cell line, AVA5
Assay: Cytotoxicity by neutral red dye uptake in replicon cultures in parallel plates
Settings: read-out: Control 2 (μM) CC50; genotype 1B
result type: CC50

Given C[C@@]1(O)[C@H](O)[C@@H](CO)O[C@H]1n1ccc(N)nc1=O , state its recorded CC50.
> 300 µM

* * *

Assay: Cytotoxicity by neutral red dye uptake in replicon cultures in parallel plates
Settings: human
result type: CC50 at 3 day

Given the compound COC1C(OP(=O)(OC[C@H]2O[C@@H](n3cnc4c(N)ncnc43)CC2O)SCOC(=O)OC(C)C)[C@@H](CO)O[C@H]1n1ccc(=O)[nH]c1=O (stereo partly shown) , what is its reported CC50 at 3 day?
> 100 µM
